# Test system: HeLa
# PROCEDURE TEXT: The compound was evaluated for its inhibitory activity against HeLa S3 cells in the absence of photoirradiation.
# Type: functional, cell-based
# ASSAY CONDITIONS: Homo sapiens, light or radiation study
Recorded pIC50, one value per entry.
The value called pIC50 is obtained by taking minus log10 of the concentration in mol/L.

COMPOUND | pIC50
C[C@@H]1O[C@H](OCc2ccc3c(c2O)C(=O)c2ccccc2C3=O)C[C@@H](N(C)C)[C@@H]1O | 4.89
C[C@@H]1O[C@@H](OCc2ccc3c(c2O)C(=O)c2ccccc2C3=O)C[C@@H](N(C)C)[C@@H]1O | 5.06

Alright, here's another compound for you.
Specify pIC50 for CC1OC(c2ccc3c(c2O)C(=O)c2ccccc2C3=O)CC(N(C)C)C1O (stereo not drawn) , system HeLa.
5.05

Cited source: ChEMBL document CHEMBL1132738
